# runDescription: Pharmacokinetic analysis in ferrets after a single oral administration of BXM
# Assay type: in vivo, ferret
# conditionParameters: plasma, po, 10 mg/kg, single oral BXM 10 mg/kg, 5% SDS water vehicle, mean of four ferrets; read-out: T max
recordedEndpoint: Tmax (h)

{"substanceSmiles": "COC(=O)OCOc1c2n(ccc1=O)N([C@@H]1c3ccccc3SCc3c1ccc(F)c3F)[C@@H]1COCCN1C2=O", "recordedEndpoint": "Tmax", "recordedMeasurement": 1.13}

###

# runDescription: Pharmacokinetic analysis in ferrets after a single oral administration of BXM
# Type: in vivo, ferret
# conditionParameters: plasma, po, 30 mg/kg, single oral BXM 30 mg/kg, individual ferrets (Ferret-05 to Ferret-08); read-out: Cmax, individual data

{"compound": "COC(=O)OCOc1c2n(ccc1=O)N([C@@H]1c3ccccc3SCc3c1ccc(F)c3F)[C@@H]1COCCN1C2=O [BXM, Baloxavir marboxil]", "Cmax, µg/mL": 0.392}

###

# runDescription: Pharmacokinetic analysis in ferrets after a single oral administration of BXM
# Type: in vivo, ferret
# conditionParameters: plasma, po, 30 mg/kg, single oral BXM 30 mg/kg, mean of four ferrets; read-out: AUC0-24 h
# Procedure: One day prior to administration, group assignment was carried out taking body weight into account. Under isoflurane anesthesia, fasted ferrets (four per group) received BXM (10 or 30 mg/5 mL/kg) suspension orally using an intragastric tube. […] The concentrations of BXA and BXM in plasma were determined by liquid chromatography‐tandem mass spectrometry (LC‐MS/MS). The lower limit of quantification of BXA and BXM in ferret plasma was 0.5 ng/mL. […]

{"compound": "COC(=O)OCOc1c2n(ccc1=O)N([C@@H]1c3ccccc3SCc3c1ccc(F)c3F)[C@@H]1COCCN1C2=O [BXM, Baloxavir marboxil]", "AUC(0-t)": "2.21 µM·h"}

###

# runDescription: Pharmacokinetic analysis in ferrets after a single oral administration of BXM
# Format: in vivo, ferret
# conditionParameters: plasma, po, 10 mg/kg, single oral BXM 10 mg/kg, 5% SDS water vehicle, mean of four ferrets; read-out: C max
recordedEndpoint: Cmax

{"compound": "COC(=O)OCOc1c2n(ccc1=O)N([C@@H]1c3ccccc3SCc3c1ccc(F)c3F)[C@@H]1COCCN1C2=O [BXM, Baloxavir marboxil]", "recordedMeasurement": "165 ng/mL"}

###

# runDescription: Pharmacokinetic analysis in ferrets after a single oral administration of BXM
# Format: in vivo, ferret
# conditionParameters: plasma, po, 10 mg/kg, single oral BXM 10 mg/kg, mean of four ferrets; read-out: AUC0-24 h

{"substanceSmiles": "COC(=O)OCOc1c2n(ccc1=O)N([C@@H]1c3ccccc3SCc3c1ccc(F)c3F)[C@@H]1COCCN1C2=O", "AUC(0-t)": "1.25 µM·h"}

###

# runDescription: Pharmacokinetic analysis in ferrets after a single oral administration of BXM
# Assay type: in vivo, ferret
# conditionParameters: plasma, po, 30 mg/kg, single oral BXM 30 mg/kg, 5% SDS water vehicle, mean of four ferrets; read-out: T max
recordedEndpoint: Tmax

{"compound": "COC(=O)OCOc1c2n(ccc1=O)N([C@@H]1c3ccccc3SCc3c1ccc(F)c3F)[C@@H]1COCCN1C2=O [BXM, Baloxavir marboxil]", "recordedMeasurement": "52.5 min"}

###

# runDescription: Pharmacokinetic analysis in ferrets after a single oral administration of BXM
# Type: in vivo, ferret
# conditionParameters: plasma, po, 30 mg/kg, single oral BXM 30 mg/kg, individual ferrets (Ferret-05 to Ferret-08); read-out: AUC0-24hr, individual data
recordedEndpoint: AUC(0-t) (ng·h/mL)

{"molecule": "COC(=O)OCOc1c2n(ccc1=O)N([C@@H]1c3ccccc3SCc3c1ccc(F)c3F)[C@@H]1COCCN1C2=O [BXM, Baloxavir marboxil]", "recordedEndpoint": "AUC(0-t)", "unitText": "ng·h/mL", "recordedMeasurement": 1450}

###

# runDescription: Pharmacokinetic analysis in ferrets after a single oral administration of BXM
# Assay type: in vivo, ferret
# conditionParameters: plasma, po, 30 mg/kg, single oral BXM 30 mg/kg, individual ferrets (Ferret-05 to Ferret-08); read-out: Tmax, individual data

{"substanceSmiles": "COC(=O)OCOc1c2n(ccc1=O)N([C@@H]1c3ccccc3SCc3c1ccc(F)c3F)[C@@H]1COCCN1C2=O", "Tmax [h]": 1}

###

# runDescription: Pharmacokinetic analysis in ferrets after a single oral administration of BXM
# Assay type: in vivo, ferret
# conditionParameters: plasma, po, 10 mg/kg, single oral BXM 10 mg/kg, mean of four ferrets; read-out: C max
# Protocol: One day prior to administration, group assignment was carried out taking body weight into account. Under isoflurane anesthesia, fasted ferrets (four per group) received BXM (10 or 30 mg/5 mL/kg) suspension orally using an intragastric tube. […] The concentrations of BXA and BXM in plasma were determined by liquid chromatography‐tandem mass spectrometry (LC‐MS/MS). The lower limit of quantification of BXA and BXM in ferret plasma was 0.5 ng/mL. […]

{"compound": "COC(=O)OCOc1c2n(ccc1=O)N([C@@H]1c3ccccc3SCc3c1ccc(F)c3F)[C@@H]1COCCN1C2=O [BXM, Baloxavir marboxil]", "Cmax / nM": 289}
